- System: Aspergillus flavus
- protocol-details: Disk diffusion assay (MEC and zone of inhibition)
- Format: cell-based
- recorded-conditions: disk diffusion, 24 hours of incubation
measured-property: MEC (minimum effective concentration) (µg/mL)

molecule	result
CCC(C)n1ncn(-c2ccc(N3CCN(c4ccc(OCC5COC(Cn6cncn6)(c6ccc(Cl)cc6Cl)O5)cc4)CC3)cc2)c1=O (stereo not shown)	0.5
CC[C@H](C)C[C@H](C)CCCCCCCCC(=O)N[C@H]1C[C@@H](O)[C@@H](NCCN)NC(=O)[C@@H]2[C@@H](O)CCN2C(=O)[C@H]([C@H](O)CCN)NC(=O)[C@H]([C@H](O)[C@@H](O)c2ccc(O)cc2)NC(=O)[C@@H]2C[C@@H](O)CN2C(=O)[C@H]([C@@H](C)O)NC1=O	2.5
OC(Cn1cncn1)(Cn1cncn1)c1ccc(F)cc1F	0
CC(C=CCCC=CC=CC=CC=CC(=O)NC1=C(O)CCC1=O)C(O)C(C)C(O)C=CC=CC=CC=CC=CCC(OC1OC(C)C(O)C(O)C1O)C(C)C(=O)CC(O)CC(O)CC(O)C=CCC(O)CC(O)CC(O)CC(O)C=CCC(O)CC(O)CCCN (stereo not shown)	2.5
